- protocol summary: JC-1 mitochondrial signal, unstimulated HepG2 cells – cell-based, JC-1 fluorescence, 24 h, 100 nL compound, profiling panel (AID 1167); also: test concentration not given here
- condition details: HepG2 mitochondrial potential, higher = more signal
Reported z-score values for a set of molecules
Hey, just send me the number, nothing else.

{"columns": ["molecule", "z-score"],
 "data": [
  ["[N-]=[N+]=Nc1ccccc1[C@@H]1OC(c2ccc(OCCCO)cc2)=N[C@]1(CCS(=O)(=O)c1ccccc1)C(=O)N1CCCCC1", -0.827],
  ["CO[C@H]1O[C@H](CO)[C@@H](OC(=O)Nc2ccc3c(c2)OCO3)[C@H](OC(=O)Nc2ccc3c(c2)OCO3)[C@H]1OC(=O)Nc1ccc2c(c1)OCO2", 0.328],
  ["CN1C(=O)C2C=CC(C(O)C(C)(C)C)N(Nc3ccccc3)C2C1=O (stereo unspecified)", -1.16]
]}

(Q) Read the entry COc1ccc([Si](C)(C)[C@H]2[C@H](CC(=O)N(CCO)Cc3ccccc3)O[C@@]3(C(=O)N(Cc4cccc(N5C(=O)c6cccc7cccc5c67)c4)c4ccccc43)[C@@H]2C)cc1 and write its reported z-score.
(A) 0.0381

(Q) Determine from records and report z-score for COCCCNC(=O)[C@@]1(Sc2ccc(C)cc2)CC(=O)N(Cc2ccccc2)[C@@H]1c1ccc(CO)cc1
(A) -0.658

(Q) Look up and state reported z-score for CC(C)[Si]1(C(C)C)O[C@@H](c2ccccc2)c2cc(-c3ccc(-c4ccc(Cl)c(Cl)c4)o3)nc(CCc3ccccc3)c21
(A) -1.95

###

- protocol summary: plasmodial surface anion channel blockers, osmotic lysis – cell-based, P. falciparum Indochina, OD700, 18 h, primary screen (AID 1157)
- condition details: P. falciparum Indochina infected erythrocytes, osmotic lysis OD700, 18 h; higher = more signal, called active from +8 up or from −8 down
Measured z-score determines class: band A (below 0.3), band B (0.3 to below 0.8), band C (0.8 or more)

{"columns": ["molecule", "class assignment"],
 "data": [
  ["CC(C)N1C(=O)c2ccccc2[C@](C)(C(=O)NCCCN(C)C)[C@@H]1c1ccc(CO)cc1", "band B"],
  ["C=CC[C@@]1(C(=O)NCc2ccccc2)N=C(c2ccc(OCCCO)cc2)O[C@@H]1c1ccccc1CN=[N+]=[N-]", "band C"],
  ["CN1C(=O)C2C=CC(C(O)c3ccccc3)N(NC(=O)OC(C)(C)C)C2C1=O (stereo not given)", "band C"],
  ["CS(=O)(=O)CCOC(=O)C1=CC(c2ccc(CO)cc2)=CC(c2cccs2)N(Cc2cccc(OC(F)(F)F)c2)C=C1C(=O)OCCS(C)(=O)=O (stereo not given)", "band C"],
  ["O=c1cccc(-c2ccccc2)o1", "band B"]
]}

Next up:
(Q) Bin this entry: CC(C)C(CO)N1C(=O)[C@@H]2[C@H]3C(=O)OCC=C[C@H]3OC23C=CCN(c2ccc4ccccc4c2)C(=O)[C@@H]13 (stereo not given in full)
(A) band B

###

- protocol summary: probe aDKK1 binding to arrayed compounds – biochemical, biotinylated probe, 635/667 nm fluorescence, primary screen (AID 1099);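 also: score merges 667nm spot fluorescence with signal to noise across triplicate slides; reference of the scale not given here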
- condition details: small-molecule microarray, higher = more signal
property measured: composite z-score
Answer using only a numeral; do not append any unit.

Reference set (3 entries):
{"columns": ["chemical string", "composite z-score"],
 "data": [
  ["COc1ccc([Si](C)(C)[C@H]2[C@H](CC(=O)N3CCC[C@H]3CO)O[C@@]3(C(=O)N(Cc4cccc(N5CCC5=O)c4)c4ccccc43)[C@@H]2C)cc1", -0.0732],
  ["CO[C@H]1O[C@H](CO)[C@@H](OC(=O)Nc2cccc(F)c2)[C@H](OC(=O)Nc2ccccc2-c2ccccc2)[C@@H]1OC(=O)Nc1ccccc1-c1ccccc1", 0.568],
  ["CC(=O)NCCCC[C@@H]1NC(=O)[C@@H]2C[C@H](C(=O)NCCCCCC[N+](C)(C)C)[C@H](c3cccc(OCCO)c3)N2C1=O", -0.145]
]}

Moving on to another compound below.
(Q) Fill in composite z-score for record COCC1=C([C@H](O)CCc2ccccc2)[C@H](CO)[C@@H]2C(=O)N(Cc3ccccc3)C(=O)[C@@H]2C1
(A) -0.253
